- Tgt: HIV-1 protease (Human immunodeficiency virus type 1 group M subtype B)
- Construct: The protease (or proteinase) enzyme, consisting of only 99 amino acids
- Assay name: In vitro HIV protease inhibitory assay (fluorescently labeled substrate, avidin-polystyrene particles)
- Assay type: biochemical
- Study conditions: HIV-1 dose 30.0 μM
Task for the reader: assign each of the following compounds its reported inhibition at 30 µM.
Your answer is read as %, so omit the unit and give the number.

q: Input CCC1(CCCc2ccccc2)OC(=O)C(C(c2ccccc2)C2CC2)=C1O (stereo not drawn) , output reported inhibition at 30 µM.
a: 105

q: Write down inhibition at 30 µM measured for item CCC(C1=C(O)C(CC)(Cc2ccccc2)OC1=O)c1ccccc1 (stereo not drawn)
a: 101

q: Look up and report measured inhibition at 30 µM for this entry: CCCCC1OC(=O)C(C(c2ccccc2)C2CC2)=C1O (stereo not drawn)
a: 93.4

q: Hello, please tell me recorded inhibition at 30 µM for this one: Cn1cnc(S(=O)(=O)Nc2cccc(C(C3=C(O)C(Cc4ccccc4)(Cc4ccccc4)OC3=O)C(C)(C)C)c2)c1 (stereo not drawn)
a: 92

q: Give inhibition at 30 µM for CC(CCc1ccccc1)C1OC(=O)C(C(c2ccccc2)C2CC2)=C1O (stereo not drawn)
a: 87.4

q: For O=C1O/C(=C\c2ccccc2)C(O)=C1C(c1ccccc1)C1CC1 (stereo not drawn) , write its inhibition at 30 µM.
a: 103

q: Given CCCC1(CCC)OC(=O)C(C(c2cccc(NS(=O)(=O)c3ncccn3)c2)C2CC2)=C1O (stereo not drawn) , respond with its inhibition at 30 µM.
a: 96.3

q: Kindly indicate its recorded inhibition at 30 µM. Item: CC(C)C1(CCCc2ccccc2)OC(=O)C(C(c2ccccc2)C2CC2)=C1O (stereo not drawn)
a: 96

q: Give the measured inhibition at 30 µM for CC(C)C1OC(=O)C(C(c2ccccc2)C2CC2)=C1O (stereo not drawn)
a: 98.6
